Data origin: patent US11124496B2

# assayed_system: human ASK1 (Homo sapiens (Human))
# Sequence (Q99683 whole entry): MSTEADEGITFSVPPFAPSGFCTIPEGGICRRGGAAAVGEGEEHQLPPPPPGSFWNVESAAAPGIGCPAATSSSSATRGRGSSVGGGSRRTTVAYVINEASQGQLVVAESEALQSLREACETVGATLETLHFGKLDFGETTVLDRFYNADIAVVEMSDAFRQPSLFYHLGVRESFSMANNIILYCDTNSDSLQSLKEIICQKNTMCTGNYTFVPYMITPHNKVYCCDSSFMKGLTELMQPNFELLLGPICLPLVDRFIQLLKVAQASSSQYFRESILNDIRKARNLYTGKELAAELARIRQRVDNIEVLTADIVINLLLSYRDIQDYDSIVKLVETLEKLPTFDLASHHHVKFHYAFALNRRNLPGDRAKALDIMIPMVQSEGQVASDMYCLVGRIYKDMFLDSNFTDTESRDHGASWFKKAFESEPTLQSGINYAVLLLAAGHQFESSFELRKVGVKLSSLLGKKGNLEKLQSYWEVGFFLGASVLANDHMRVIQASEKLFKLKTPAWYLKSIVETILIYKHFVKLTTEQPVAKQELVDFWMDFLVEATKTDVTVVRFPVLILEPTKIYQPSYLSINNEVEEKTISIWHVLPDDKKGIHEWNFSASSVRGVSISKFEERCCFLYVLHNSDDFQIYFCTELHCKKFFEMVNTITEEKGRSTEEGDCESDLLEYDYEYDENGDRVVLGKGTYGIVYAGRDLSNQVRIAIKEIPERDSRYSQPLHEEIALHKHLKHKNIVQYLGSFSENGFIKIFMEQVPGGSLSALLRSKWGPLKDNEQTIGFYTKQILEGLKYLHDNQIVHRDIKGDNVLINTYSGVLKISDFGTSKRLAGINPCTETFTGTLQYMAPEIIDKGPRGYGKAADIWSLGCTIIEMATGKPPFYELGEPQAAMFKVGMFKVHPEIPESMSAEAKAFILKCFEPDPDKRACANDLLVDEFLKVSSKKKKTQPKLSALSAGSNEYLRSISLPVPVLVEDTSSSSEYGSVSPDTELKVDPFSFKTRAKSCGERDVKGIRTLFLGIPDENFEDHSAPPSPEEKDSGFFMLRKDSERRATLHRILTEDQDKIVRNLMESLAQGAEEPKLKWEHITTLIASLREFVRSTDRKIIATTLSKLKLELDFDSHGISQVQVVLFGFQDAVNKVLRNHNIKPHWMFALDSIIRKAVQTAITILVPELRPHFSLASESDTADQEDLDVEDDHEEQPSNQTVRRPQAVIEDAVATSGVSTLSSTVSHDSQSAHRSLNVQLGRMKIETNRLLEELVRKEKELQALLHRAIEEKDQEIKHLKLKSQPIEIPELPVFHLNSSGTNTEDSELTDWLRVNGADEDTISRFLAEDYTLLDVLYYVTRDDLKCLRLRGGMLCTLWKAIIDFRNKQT
# protocol_details: ASK1 autophosphorylation (Thr838) assay in HEK293 cells overexpressing human ASK1
# condition_summary: H2O2-stimulated (1 mM, 10 minutes) ASK1 autophosphorylation at Thr838, HEK293 cells; Mean±Standard Deviation; read-out: HEK pASK1 IC50
quantity: IC50 (nM)

1) CC(C)n1cnnc1-c1cccc(N2CCN(CCc3cnc(C4CC4)nc3)C2=O)n1 735
2) CC(C)n1cnnc1-c1cccc(N2CCN(CCn3cnc(C4CC4)c3)C2=O)n1 1130

a = CC(C)n1cnnc1-c1cccc(N2CCN([C@H](C)Cn3cnc(C4CC4)c3)C2=O)n1
b = CC(C)n1cnnc1-c1cccc(N2CCN(CCc3cccnc3)C2=O)n1
c = Cc1ccc(CCN2CCN(c3cccc(-c4nncn4C(C)C)n3)C2=O)cn1
d = CC(C)n1cnnc1-c1cccc(N2CCNC2=O)n1
Put the items in order so that reported IC50 rises from first to last. Answer format: the labels, in the requested order.
c, a, b, d
(c: 520 nM, a: 886 nM, b: 1400 nM, d: 3770 nM)

---

# assayed_system: recombinant human ASK1 (hASK1) catalytic domain (Homo sapiens (Human), UniProt Q99683)
# protocol_details: ASK1 enzymatic assay (ADP-Glo Kinase Assay)
# condition_summary: hASK1 0.25 nM, MKK6 300 nM, ATP 100 uM; Mean±Standard Deviation
quantity: IC50 (nM)

Here's what some known entries look like.
compound	IC50, nM
CC(C)n1cnnc1-c1cccc(N2CCN(CCc3cnc(C4CC4)nc3)C2=O)n1 [Example 4]	13.7
CC(C)n1cnnc1-c1cccc(N2CCNC2=O)n1 [Example 5]	64.4
CC(C)n1cnnc1-c1cccc(N2CCN([C@H](C)Cn3cnc(C4CC4)c3)C2=O)n1 [Example 2]	14

A = Cc1ncc(CCN2CCN(c3cccc(-c4nncn4C(C)C)n3)C2=O)cn1 [Example 6]
B = CC(C)n1cnnc1-c1cccc(N2CCN(CCn3cnc(C4CC4)c3)C2=O)n1 [Example 3]
C = Cc1ccc(CCN2CCN(c3cccc(-c4nncn4C(C)C)n3)C2=O)cn1 [Example 7]
D = CC(C)n1cnnc1-c1cccc(N2CCN(CCc3cccnc3)C2=O)n1 [Example 1]
Put the items in order so that reported IC50 rises from first to last. Answer format: the labels, in the requested order.
B, C, D, A

---

# assayed_system: human ASK1 (Homo sapiens (Human))
# protocol_details: ASK1 autophosphorylation (Thr838) assay in HEK293 cells overexpressing human ASK1
# Format: cell-based
# condition_summary: HEK pASK1 assay; standard ASK1 inhibitor = 100% inhibition, DMSO vehicle = 0%
quantity: Efficacy (%)

molecule	assayed_system	assay_result
Cc1ccc(CCN2CCN(c3cccc(-c4nncn4C(C)C)n3)C2=O)cn1 [Example 7]	human ASK1 (Homo sapiens (Human))	100
CC(C)n1cnnc1-c1cccc(N2CCN(CCc3cnc(C4CC4)nc3)C2=O)n1 [Example 4]	human ASK1 (Homo sapiens (Human))	107
CC(C)n1cnnc1-c1cccc(N2CCN(CCc3cccnc3)C2=O)n1 [Example 1]	human ASK1 (Homo sapiens (Human))	80.5
CC(C)n1cnnc1-c1cccc(N2CCN([C@H](C)Cn3cnc(C4CC4)c3)C2=O)n1 [Example 2]	human ASK1 (Homo sapiens (Human))	96.0
CC(C)n1cnnc1-c1cccc(N2CCNC2=O)n1 [Example 5]	human ASK1 (Homo sapiens (Human))	100
CC(C)n1cnnc1-c1cccc(N2CCN(CCn3cnc(C4CC4)c3)C2=O)n1 [Example 3]	human ASK1 (Homo sapiens (Human))	101
